The reported measurements were obtained from patent US6955818B1.

Tested on: Merino sheep skin
Assay: Pour-on carrier/vehicle sheep skin irritation studies (histological scoring)
Type: in vivo
Conditions: applied to skin of recently shorn Merino sheep, histology
test-readout: skin irritancy / histological dermatitis (in words)

                                   compound  experimental_value
0  CCCCOCCOCCO [DB, diethylene glycol n-butyl ether]     highly irritant
1       CC(=O)CC(C)(C)O [Diacetone alcohol]        non-irritant
2  CCCCCCCCCCC(CO)CCCCCCCC (stereo not shown) [2-octyl-dodecanol]     highly irritant
3  CCCCCCCC/C=C\CCCCCCCC(=O)OC [methyl oleate]     highly irritant
4  CCCCCCCCCCCCCCCC(=O)OCCCCCCCC [OP, octyl palmitate]        non-irritant

###

System: Merino sheep skin
Test: Pour-on carrier/vehicle sheep skin irritation studies (histological scoring)
Type: in vivo
Details: 1 mL applied to skin of recently shorn Merino sheep; histological score 0-15 (0 no change, 15 very severe damage; normal 2-4, >4 abnormal, >7 very abnormal)
test-readout: Mean skin irritation scores

>>> print(df.to_string())
                                   compound  experimental_value
0  CCCCCCCCCCCCCCCC(=O)OCCCCCCCC [OP, octyl palmitate]                 3.3
1                               CCCCOCCOCCO                   7
2  CCCCCCCCCCCCCC(=O)OC(C)C [IPM, isopropyl myristate]                   8
3         COC(C)COC(C)CO (centres unmarked)                   4
4                           CC(=O)CC(C)(C)O                   2
